Values compiled from patent US6956055B2.

Each item that follows carries a reported inhibition at 10 µM.
# Tested On: glycine-binding site of the NMDA receptor channel (Rattus norvegicus, UniProt P35439)
# Construct: from tissue; host or cells: rat brain cortex and hippocampus membrane homogenate (male Wistar rats, Charles River)
# Method: Receptor binding test, displacement of (3H)-MDL 105.519 on rat brain membrane homogenates
# Condition Notes: 10 μM; rat cortex and hippocampus membrane homogenate; (3H)-MDL 105.519

[
  {
    "Compound": "CC1(c2ccc(Cl)cc2)CC(Nc2cc(Cl)cc(Cl)c2)C(=O)O1 (stereo not shown)",
    "Tested On": "glycine-binding site of the NMDA receptor channel (Rattus norvegicus, UniProt P35439)",
    "inhibition at 10 µM (%)": 71
  },
  {
    "Compound": "CCCCC1(c2ccccc2)CC(Nc2cc(Cl)cc(Cl)c2)C(=O)O1 (stereo not shown)",
    "Tested On": "glycine-binding site of the NMDA receptor channel (Rattus norvegicus, UniProt P35439)",
    "inhibition at 10 µM (%)": 62
  },
  {
    "Compound": "CC1(c2ccc(F)cc2)CC(Nc2cc(Cl)cc(Cl)c2)C(=O)O1 (stereo not shown)",
    "Tested On": "glycine-binding site of the NMDA receptor channel (Rattus norvegicus, UniProt P35439)",
    "inhibition at 10 µM (%)": 70
  },
  {
    "Compound": "CC1(c2ccccc2)CC(Nc2cc(Cl)cc(Cl)c2)C(=O)O1 (stereo not shown)",
    "Tested On": "glycine-binding site of the NMDA receptor channel (Rattus norvegicus, UniProt P35439)",
    "inhibition at 10 µM (%)": 80
  }
]

###

# Tested On: glycine-binding site of the NMDA receptor channel (Rattus norvegicus)
# Method: Receptor binding test, displacement of (3H)-MDL 105.519 on rat brain membrane homogenates
# Condition Notes: rat cortex and hippocampus membrane homogenate; 1 nmol/l (3H)-MDL 105.519; IC50 converted using Cheng-Prusoff equation
Quantity Name: Ki (nM)

[
  {
    "Molecule": "CC1(c2ccc(F)cc2)CC(Nc2cc(Cl)cc(Cl)c2)C(=O)O1 (stereo not drawn)",
    "Quantity Name": "Ki",
    "Observed Value": 800
  },
  {
    "Molecule": "CC1(c2ccccc2)CC(Nc2cc(Cl)cc(Cl)c2)C(=O)O1 (stereo not drawn)",
    "Quantity Name": "Ki",
    "Observed Value": 800
  },
  {
    "Molecule": "CC1(c2ccc(Cl)cc2)CC(Nc2cc(Cl)cc(Cl)c2)C(=O)O1 (stereo not drawn)",
    "Quantity Name": "Ki",
    "Observed Value": 1300
  }
]
